Experiment: Human HepG2 cell viability assay in 384 well format
Format: toxicity, cell-based
Design: dose 125 nL, time 70.5 hour; concentration not given beside the values
Settings: HepG2 cells, read-out: Inhibition
metric: cytotoxicity at 70.5 h (%)
Please reply with the bare figure in % and do not write the unit itself.

Below are worked cases with known answers.
CCc1ocnc1C(=O)N1CCC(C2CCN(c3ncccn3)CC2)C1 (stereo unspecified): 1.07
CCOc1ccc(NC2CCN(C)C2=O)cn1 (stereo unspecified): -3.61
CNC(=O)C1CCN(Cc2nc(-c3ccc(SC)cc3)oc2C)C1 (stereo unspecified): -6.93
CC(C)CN(C(=O)Nc1cccc(C(=O)N(C)C)c1)C1CC1: -10.3
Cc1[nH]ncc1C(=O)N(CC(C)C)CC(O)c1ccc(F)cc1 (stereo unspecified): 14.2

Turning now to a further record.
Provide measured cytotoxicity at 70.5 h value, entry: CCn1ccc(C(=O)NCCCN2CCOCC2)n1
-11.6

====

Test: Human HepG2 cell viability assay in 384 well format
Format: toxicity, cell-based
Parameters: dose 125 nL, time 70.5 hour; concentration not given beside the values
Details: HepG2 cells, read-out: Inhibition
metric: cytotoxicity at 70.5 h (%)
Please reply with the bare figure in % and do not write the unit itself.

COc1nc2c(cc1C(=O)N1CCCC1c1ccccn1)CCC2 (stereo unspecified): 1.54
COC(=O)c1ccc(NC(=O)CCNCc2ccco2)cc1: -7.22

Turning now to a further record.
Provide measured cytotoxicity at 70.5 h value, entry: CCOC(=O)CC1CCCCN1C(=O)c1cc(=O)[nH]c(=O)[nH]1 (stereo unspecified)
11.7

====

Assay: Human HepG2 cell viability assay in 384 well format
Format: toxicity, cell-based
Set-up: dose 125 nL, time 70.5 hour; concentration not given beside the values
Conditions: HepG2 cells, read-out: Inhibition
cytotoxicity at 70.5 h for assorted compounds
Please reply with the bare figure in % and do not write the unit itself.

CNS(=O)(=O)c1cccc(C(C)NCc2ccccc2)c1 (centres undefined): -2.31
Cc1cccc(N2CCOCC3(C2)CN(c2ccccc2)C(=O)CO3)n1 (centres undefined): -4.51
c1ncn(CC2CCCN(Cc3nc(C4CC4)no3)C2)n1 (centres undefined): 31.5
CNCC(=O)Nc1cccc(-c2cnc(NCCS(C)(=O)=O)nc2)c1: 0.0271
CCOc1ccc(OCc2nccc(-c3cc(C(=O)O)ccn3)n2)cc1: 16
CCn1ncnc1C(C)Nc1cc(C2CC2)ncn1 (centres undefined): -13
Cc1cnn(CCCNC(=O)NC2CCN(CC(F)(F)F)C2=O)c1 (centres undefined): -4.78
CCc1noc(C)c1C(=O)N1CCC(c2[nH]ncc2S(C)(=O)=O)C1 (centres undefined): -4.87
CC(C)c1nn(CC(=O)N2CCCC2)c(=O)c2c1cnn2C(C)(C)C: 14.2
CCC1CN(C)c2ccccc2CN1C(=O)c1c[nH]c(=O)cc1C (centres undefined): -11.3

Provide measured cytotoxicity at 70.5 h value, entry: CCCOCCN1CCc2[nH]c(-c3ccc(OC)cc3)nc2C1
-17

Provide measured cytotoxicity at 70.5 h value, entry: CCn1cnnc1C1CCN(C(=O)c2ccc(OC(C)C)nc2)CC1
5.53

Provide measured cytotoxicity at 70.5 h value, entry: CC(C)c1csc(C2CCCN(C(=O)Cn3ccccc3=O)C2)n1 (centres undefined)
23.3

Provide measured cytotoxicity at 70.5 h value, entry: Cc1cccc(NC(=O)c2sccc2C)n1
36.7

Where do the numbers come from? From ChEMBL document CHEMBL3507680.
